Values were extracted from the supplement of paper PMC10567573.

B1: ZNF207 (parent)
chain: YQGGPPRPPMGMRPPVMSQGGRY

- Variants of: B1
- Method summary: protein stability index of a GFP-peptide fusion (GPS, HEK-293T) (PSI 1-6); higher = more stable;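 note: lentivirally expressed fusions sorted by FACS into six bins by GFP to DsRed ratio, PSI derived from sequencing read proportions per bin multiplied by bin number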
- Applied conditions: c terminus: native
Form field: protein stability index (one value per entry).
Measurement type: protein stability index

| Sequence code | Value observed |
| --- | --- |
| YQGGPPRPPSGMRPPVMSQGGRY | 2.1 |
| HQGGPPRPPMGMRPPVMSQGGRY | 2.91 |
| YYGGPPRPPMGMRPPVMSQGGRY | 2.89 |
| YQVGPPRPPMGMRPPVMSQGGRY | 1.43 |
| YQGGPPRPPMGMRPPVMSNGGRY | 2.56 |
| YQGVPPRPPMGMRPPVMSQGGRY | 2.74 |
| YQGGPPRPPMGMRPPVMKQGGRY | 1.81 |
| YQIGPPRPPMGMRPPVMSQGGRY | 3.37 |
| YQGGPPRPPMGMRPPVMSQWGRY | 2.46 |
| YQGGPPRPPMGSRPPVMSQGGRY | 2.64 |
| YQKGPPRPPMGMRPPVMSQGGRY | 2.89 |
| YQGGPPRPPMGMRPPVMSQKGRY | 2.16 |
| YQGGPPRPPMGMRPPVMYQGGRY | 1.58 |
| WQGGPPRPPMGMRPPVMSQGGRY | 2.49 |
| YQGGPPRAPMGMRPPVMSQGGRY | 1.09 |
| YQGGPPRPPMGMFPPVMSQGGRY | 2.23 |
| YQGGPPKPPMGMRPPVMSQGGRY | 2.71 |
| YQGGPQRPPMGMRPPVMSQGGRY | 2.2 |
| YQGGPPRVPMGMRPPVMSQGGRY | 1.57 |
| YQWGPPRPPMGMRPPVMSQGGRY | 1.39 |
| YQGGPPRPPMGMRPPVMSQGGQY | 1.43 |
| KQGGPPRPPMGMRPPVMSQGGRY | 3.55 |
